Target: Bcl-2-like protein 1 (Homo sapiens, UniProt Q07817)
Sequence (Q07817 whole entry): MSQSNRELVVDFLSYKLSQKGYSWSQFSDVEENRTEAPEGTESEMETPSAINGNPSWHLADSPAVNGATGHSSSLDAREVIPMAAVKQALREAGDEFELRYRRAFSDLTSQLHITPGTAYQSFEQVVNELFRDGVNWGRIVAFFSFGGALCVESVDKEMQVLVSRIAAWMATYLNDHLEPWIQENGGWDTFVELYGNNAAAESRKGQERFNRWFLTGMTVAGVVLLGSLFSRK
Test: Inhibition of Bcl-XL
observationType: EC50 (nM)
Kindly provide the numeric value in nM only, without the unit symbol.

{"molecule": "COC1(CC(C)(C)C)CCN(c2ccc(C(=O)NS(=O)(=O)c3ccc(NC(CCN(C)C)CSc4ccccc4)c([N+](=O)[O-])c3)cc2)CC1 (stereo not drawn)", "recordedValue": 750}
{"molecule": "CN(C)CCC(CSc1ccccc1)Nc1ccc(S(=O)(=O)NC(=O)c2ccc(N3CCN(Cc4ccccc4-c4ccc(-c5ccccc5)cc4)CC3)cc2)cc1[N+](=O)[O-] (stereo not drawn)", "recordedValue": 22}
{"molecule": "CN(C)CCC(CSc1ccccc1)Nc1ccc(S(=O)(=O)NC(=O)c2ccc(N3CCC(=Cc4ccccc4C(F)(F)F)CC3)cc2)cc1[N+](=O)[O-] (stereo not drawn)", "recordedValue": 150}
{"molecule": "COC1(Cc2ccc(-c3ccccc3)cc2)CCN(c2ccc(C(=O)NS(=O)(=O)c3ccc(NC(CCN(C)C)CSc4ccccc4)c([N+](=O)[O-])c3)cc2)CC1 (stereo not drawn)", "recordedValue": 600}

IN: // lookup EC50 | system=Bcl-2-like protein 1 (Homo sapiens, UniProt Q07817) | key= COc1ccccc1CC1(OC)CCN(c2ccc(C(=O)NS(=O)(=O)c3ccc(NC(CCN(C)C)CSc4ccccc4)c([N+](=O)[O-])c3)cc2)CC1 (stereo not drawn)
OUT: 150

IN: // lookup EC50 | system=Bcl-2-like protein 1 (Homo sapiens, UniProt Q07817) | key= Cc1ccccc1CN1CCN(c2ccc(C(=O)NS(=O)(=O)c3ccc(NC(CCN(C)C)CSc4ccccc4)c([N+](=O)[O-])c3)cc2)CC1 (stereo not drawn)
OUT: 410

IN: // lookup EC50 | system=Bcl-2-like protein 1 (Homo sapiens, UniProt Q07817) | key= COC1(Cc2ccccc2F)CCN(c2ccc(C(=O)NS(=O)(=O)c3ccc(NC(CCN(C)C)CSc4ccccc4)c([N+](=O)[O-])c3)cc2)CC1 (stereo not drawn)
OUT: 180

IN: // lookup EC50 | system=Bcl-2-like protein 1 (Homo sapiens, UniProt Q07817) | key= COC1(Cc2ccccc2Cl)CCN(c2ccc(C(=O)NS(=O)(=O)c3ccc(NC(CCN(C)C)CSc4ccccc4)c([N+](=O)[O-])c3)cc2)CC1 (stereo not drawn)
OUT: 230

IN: // lookup EC50 | system=Bcl-2-like protein 1 (Homo sapiens, UniProt Q07817) | key= CN(C)CCC(CSc1ccccc1)Nc1ccc(S(=O)(=O)NC(=O)c2ccc(N3CCN(Cc4ccccc4-c4ccc(C(F)(F)F)cc4)CC3)cc2)cc1[N+](=O)[O-] (stereo not drawn)
OUT: 40

The reported numbers originate from ChEMBL document CHEMBL1287643.
